# TEST_SYSTEM: BAF3 FL KIT EX11DEL/T670I (Homo sapiens, UniProt P10721, T670I, cells depend on it, form not given)
# Construct: BAF3 FL KIT EX11DEL/T670I
# Sequence (P10721 with tags, fused parts or gaps DEL557-558/T670I, form open): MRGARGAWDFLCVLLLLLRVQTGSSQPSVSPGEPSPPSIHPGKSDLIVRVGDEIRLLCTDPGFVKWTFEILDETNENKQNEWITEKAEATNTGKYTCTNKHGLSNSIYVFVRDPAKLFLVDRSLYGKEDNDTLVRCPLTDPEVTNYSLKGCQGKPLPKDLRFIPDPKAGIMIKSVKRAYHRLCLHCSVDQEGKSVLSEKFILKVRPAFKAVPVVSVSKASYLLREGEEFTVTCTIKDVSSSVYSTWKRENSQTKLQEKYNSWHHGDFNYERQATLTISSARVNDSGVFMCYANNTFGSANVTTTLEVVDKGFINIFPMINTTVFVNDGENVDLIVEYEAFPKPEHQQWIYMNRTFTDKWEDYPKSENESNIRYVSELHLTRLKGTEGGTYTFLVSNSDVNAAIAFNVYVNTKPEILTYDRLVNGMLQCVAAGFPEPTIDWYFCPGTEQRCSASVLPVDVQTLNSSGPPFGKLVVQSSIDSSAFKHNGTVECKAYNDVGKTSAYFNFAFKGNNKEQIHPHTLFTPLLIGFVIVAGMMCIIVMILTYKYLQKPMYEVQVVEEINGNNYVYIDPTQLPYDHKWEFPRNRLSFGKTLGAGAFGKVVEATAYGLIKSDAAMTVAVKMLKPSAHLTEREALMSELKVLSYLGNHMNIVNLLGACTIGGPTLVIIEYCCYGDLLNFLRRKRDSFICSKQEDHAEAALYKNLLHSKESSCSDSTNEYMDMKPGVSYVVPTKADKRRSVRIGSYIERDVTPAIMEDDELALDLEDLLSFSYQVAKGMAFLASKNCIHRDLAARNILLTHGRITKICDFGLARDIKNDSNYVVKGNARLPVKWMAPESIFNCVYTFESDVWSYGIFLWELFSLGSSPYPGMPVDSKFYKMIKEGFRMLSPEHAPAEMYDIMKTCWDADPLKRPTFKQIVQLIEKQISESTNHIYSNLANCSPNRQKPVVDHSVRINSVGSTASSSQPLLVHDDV
# EXPERIMENT: c-Kit assay: Ba/F3 KIT mutant cell viability (Cell Titer-Glo, 72 hours)
# Assay type: cell-based
# CONDITION: viability after 72 hours
# Description: Generation of DBa/F3 KIT Mutant Engineered Cell Lines KIT cDNAs were synthesized by GenScript and cloned into the pLVX-IRES-Puro vector (Clontech). Viral particles were produced by transfecting pLVX-IRES-puro vectors containing KIT mutant genes into HEK293 cells (Invitrogen) using the Trans-Lentiviral ORF Packaging Kit (Thermo Scientific). […]
RECORDED_ENDPOINT: GI50

Illustrative cases are given below, each with its answer.
> print(dat)
                                   compound  endpoint.result
1  Cc1ccc(C(=O)Nc2cc(C(F)(F)F)ccn2)cc1C#Cc1cnc(NC(=O)NCCN)s1 [I-38]     50 to 100 nM
2  CCN(C)C(=O)Nc1ncc(C#Cc2cc(C(=O)Nc3cc(C(F)(F)F)ccn3)ccc2C)s1 [I-8]          < 10 nM
3  Cc1ccc(C(=O)Nc2cc(C(F)(F)F)ccn2)cc1C#Cc1cnc(NC(=O)NCc2ccncc2)s1 [I-26]      10 to 50 nM
4  Cc1ccc(C(=O)Nc2cc(C(F)(F)F)ccn2)cc1C#Cc1cnc(NC(=O)NCCN2CCOCC2)s1 [I-6]      10 to 50 nM
5  CNC(=O)Nc1ncc(C#Cc2cc(NC(=O)c3cc(C(F)(F)F)ccn3)ccc2C)s1 [I-57]      10 to 50 nM

--- query ---
Challenge: Fill in: GI50 of Cc1ccc(C(=O)Nc2cc(C(F)(F)F)ccn2)cc1C#Cc1cnc(NC(N)=O)s1 [I-2] is ___
Response given: < 10 nM
